# SYSTEM_NAME: Trypsin (Bos taurus)
# Sequence (P00760 24-246): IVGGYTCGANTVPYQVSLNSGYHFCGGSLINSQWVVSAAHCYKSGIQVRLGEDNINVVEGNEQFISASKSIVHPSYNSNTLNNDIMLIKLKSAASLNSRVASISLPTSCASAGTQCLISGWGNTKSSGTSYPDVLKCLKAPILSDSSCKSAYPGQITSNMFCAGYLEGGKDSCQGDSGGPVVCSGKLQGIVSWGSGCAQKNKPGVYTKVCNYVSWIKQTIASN
# PROTOCOL_DETAILS: Enzymatic assay, determination of antitrypsin activity (apparent Ki)
# Assay type: biochemical
# TEST_CONTEXT: competitive tight-binding fit
Where a SMILES comes first, the peptide text is derived from it. [ ]: non-standard residue; d: D form.
REPORTED_PROPERTY: Ki (nM)

>  <MOLECULE>
CC[C@H](C)[C@@H]1NC(=O)[C@@H]2CCCN2C(=O)[C@@H]2CCCN2C(=O)[C@H](C)NC(=O)[C@H](CO)NC(=O)[C@H](CCCCN)NC(=O)[C@H]([C@@H](C)O)NC(=O)[C@@H]2CCCN2C(=O)[C@H]2CCCN2C1=O [Ex. 5] (cyclo(TKSAPPI[dP]P))

>  <RECORDED_RESULT>
1900

$$$$
>  <MOLECULE>
CC[C@H](C)[C@@H]1NC(=O)[C@@H]2CCCN2C(=O)[C@@H]2CCCN2C(=O)[C@H]([C@@H](C)CC)NC(=O)[C@H](CO)NC(=O)[C@H](CCCCN)NC(=O)[C@H](C)NC(=O)[C@@H]2CCCN2C(=O)[C@H]2CCCN2C1=O [Ex. 2] (cyclo(AKSIPPI[dP]P))

>  <RECORDED_RESULT>
1500

$$$$

[1] CC[C@H](C)[C@@H]1NC(=O)[C@H](CO)NC(=O)[C@H](CCCCN)NC(=O)[C@H]([C@@H](C)O)NC(=O)[C@@H]2CCCN2C(=O)[C@H]2CCCN2C(=O)[C@H](C)NC(=O)[C@@H]2CCCN2C(=O)[C@@H]2CCCN2C1=O [Ex. 8] (cyclo(TKSIPPA[dP]P))
[2] CC[C@H](C)[C@@H]1NC(=O)[C@@H]2CCCN2C(=O)[C@@H]2CCCN2C(=O)[C@H]([C@@H](C)CC)NC(=O)[C@H](CO)NC(=O)[C@H](CCCCN)NC(=O)[C@H]([C@@H](C)O)NC(=O)[C@@H]2CCCN2C(=O)[C@H]2CCCN2C1=O [Ex. 1] (cyclo(TKSIPPI[dP]P))
## Input Which record would sort first by descending Ki, 1 or 2 ? Your choice should be expressed through its label.
## Output 1

----------
# SYSTEM_NAME: Chymotrypsin (Homo sapiens, UniProt P17538)
# Sequence (P17538 19-263): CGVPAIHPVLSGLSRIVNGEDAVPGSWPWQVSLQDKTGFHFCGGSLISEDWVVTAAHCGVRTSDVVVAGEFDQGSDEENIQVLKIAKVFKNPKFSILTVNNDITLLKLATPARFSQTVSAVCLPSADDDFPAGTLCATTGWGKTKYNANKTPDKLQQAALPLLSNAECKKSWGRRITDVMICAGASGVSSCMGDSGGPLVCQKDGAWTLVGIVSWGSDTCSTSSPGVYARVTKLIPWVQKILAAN
# PROTOCOL_DETAILS: Enzymatic assay, chymotrypsin inhibition (apparent Ki)
# Type: biochemical
# TEST_CONTEXT: substrate N-succinyl-Ala-Ala-Pro-Phe-4-nitroanilide 1.6 mM
Where a SMILES comes first, the peptide text is derived from it. Bridges are numbered along the chain shown (N, C = ends). [ ]: non-standard residue; d: D form.
REPORTED_PROPERTY: Ki (nM)
Provide the reading as a plain figure in nM.

>  <COMPOUND>
CC[C@H](C)[C@@H]1NC(=O)[C@@H]2CCCN2C(=O)[C@@H]2CCCN2C(=O)[C@H]([C@@H](C)CC)NC(=O)[C@H](CO)NC(=O)[C@H](Cc2ccccc2)NC(=O)[C@H]([C@@H](C)O)NC(=O)[C@@H]2CCCN2C(=O)[C@H]2CCCN2C1=O [Ex. 11] (cyclo(TFSIPPI[dP]P))

>  <Ki [nM]>
4700

$$$$
>  <COMPOUND>
CC[C@H](C)[C@@H]1NC(=O)[C@@H]2CCCN2C(=O)[C@@H]2CCCN2C(=O)[C@H]([C@@H](C)CC)NC(=O)[C@H](CO)NC(=O)[C@H](Cc2c[nH]c3ccccc23)NC(=O)[C@H]([C@@H](C)O)NC(=O)[C@@H]2CCCN2C(=O)[C@H]2CCCN2C1=O [Ex. 10] (cyclo(TWSIPPI[dP]P))

>  <Ki [nM]>
1400

$$$$
>  <COMPOUND>
CC[C@H](C)[C@@H]1NC(=O)[C@@H]2CCCN2C(=O)[C@@H]2CCCN2C(=O)[C@H]([C@@H](C)CC)NC(=O)[C@H](CO)NC(=O)[C@H](Cc2ccc(O)cc2)NC(=O)[C@H]([C@@H](C)O)NC(=O)[C@@H]2CCCN2C(=O)[C@H]2CCCN2C1=O [Ex. 9] (cyclo(TYSIPPI[dP]P))

>  <Ki [nM]>
4400

$$$$

Let's switch to this compound now.
## Input Ki for CC[C@H](C)[C@@H]1NC(=O)[C@@H]2CCCN2C(=O)[C@@H]2CCCN2C(=O)[C@H]([C@@H](C)CC)NC(=O)[C@H](CO)NC(=O)[C@H](CCCCN)NC(=O)[C@H]([C@@H](C)O)NC(=O)[C@@H]2CSSC[C@H](NC1=O)C(=O)N[C@@H](Cc1ccccc1)C(=O)N1CCC[C@@H]1C(=O)N1CCC[C@H]1C(=O)N[C@@H](CCCNC(=N)N)C(=O)N2 [Ex. 15] (cyclo(RCTKSIPPICF[dP]P); disulfide 2-10) ?
## Output 3800
